The reported measurements were obtained from a melting point compilation (Tetko et al.).

Known melting point of a selection of molecules

These recorded examples may help you get a feel for the data.
Cc1cc(C(=O)O)sc1C=O; 204 to 206 °C
Nc1ccc(CCCC(=O)O)cc1; 121 to 124 °C
CC(=O)Nc1ccc(O)c(C(=O)O)c1; 221 to 223 °C
CCCCCNC1=NCC(c2ccccc2)S1 (configuration not stated); 66 to 68 °C
CCOc1ccccc1OCC(=O)NN; 94 to 96 °C

Turning to the following molecule.
**Q:** // lookup melting point for O=C(O)C1CC12CCCc1ccccc12 (configuration not stated)
**A:** 161 to 163 °C

====

Reported melting point values for the following compounds.

Cc1sc2nc(S)n(C)c(=O)c2c1C; 288 to 290 °C
NNC(=O)c1cc(Br)ccc1O; 222 to 224 °C
CC(C)n1cnc(S(=O)(=O)Cl)c1; 62 to 64 °C
Clc1cc(N2CCSCC2)ncn1; 134 to 136 °C

**Q:** Entry under review: ON=Cc1csnn1 . Reported melting point?
**A:** 136 to 138 °C

**Q:** Using the record for CC1CCCN1CC(=O)O (stereo not given) , report its melting point.
**A:** 167 to 169 °C

**Q:** Recorded melting point for O=C(O)c1cccc(NS(=O)(=O)c2ccccc2)c1 , please?
**A:** 199 to 201 °C

**Q:** Data request, read-out melting point, for CN(C(=O)c1ccncc1)c1ccc(C#N)cc1
**A:** 105 to 107 °C

====

Let's look at some molecules and their measured melting point.

CCOc1ccccc1-c1nn(C(C)(C)C)cc1C(=O)O; 207 to 209 °C
Cc1ccc(S(=O)(=O)Nc2ccccc2C(=O)O)cc1; 231 to 233 °C
NC(=O)c1ccc(N)nn1; 256 to 258 °C

**Q:** // lookup melting point for COC(=O)Cn1ccc(N)n1
**A:** 74 to 76 °C

**Q:** Form field: reported melting point of O=C1NC(=O)C2(CCS(=O)(=O)CC2)N1
**A:** 327 to 329 °C

**Q:** // melting point lookup, key: CCC(=O)c1ccc(N(C)C)cc1
**A:** 104 to 106 °C

**Q:** Can you look up the measured melting point of [N-]=[N+]=Nc1ccnc(CO)c1 for me?
**A:** 59 to 61 °C

**Q:** Record request: melting point value, item Clc1ccc2nncn2n1
**A:** 213 to 215 °C

**Q:** Param item = O=C(CBr)c1c[nH]c2ncccc12 ; retrieve measured melting point.
**A:** 209 to 211 °C

**Q:** Returns the measured melting point for the input molecule. Input: O=C(O)CN(CC(=O)O)Cc1ccccc1
**A:** 200 to 202 °C

**Q:** For the molecule COc1cccnc1N , what melting point is on record?
**A:** 76 to 78 °C

**Q:** Query (molecule): O=Cc1ccn(-c2ccccc2)n1 ; field requested: melting point
**A:** 49 to 51 °C

**Q:** Would you mind telling me what melting point value was observed for CC1CC(C(=O)O)CC(C)(C)C1 (configuration not stated) ?
**A:** 39 to 41 °C

**Q:** Endpoint output: melting point of O=C1CCN(C(=O)C2CC2)CC1 . Value?
**A:** 72 to 74 °C

**Q:** For the molecule O=C(O)Cc1ccc(-n2cnnn2)cc1 , what melting point is on record?
**A:** 171 to 173 °C

**Q:** What value of melting point has been reported for the following molecule? NNC(=O)c1cc(Br)c[nH]1
**A:** 215 to 219 °C

**Q:** Data request, read-out melting point, for Cc1nn2cnnc2[nH]c1=O
**A:** 195 to 197 °C

**Q:** I'd like to know its melting point. The molecule in question is CC(=O)Nc1ccc(CCO)cc1
**A:** 106 to 108 °C

**Q:** Field request: melting point | item: COC(=O)COc1ccc(C(C)=O)cc1
**A:** 85 to 87 °C

**Q:** Please report the recorded melting point for O=C(O)C=Cc1cn(-c2ccccc2)nc1-c1cccs1 .
**A:** 224 to 226 °C

**Q:** Quick one: melting point for Cc1cnn(-c2ccc(S(=O)(=O)Cl)cc2F)c1 ?
**A:** 99 to 101 °C

**Q:** Please give the measured melting point for this molecule: CC(=O)N1CCCC(C(N)=O)C1 (configuration not stated)
**A:** 146 to 148 °C

**Q:** Reported melting point, molecule O=C(c1cc2cc(Br)ccc2o1)c1cccs1 : ____
**A:** 88 to 90 °C

**Q:** Please give the measured melting point for this molecule: CCOC(=O)Cn1cc(Br)ccc1=O
**A:** 81 to 83 °C

====

measuredParameter: melting point

# count of solved cases: 4
NC(=S)c1ccc(Br)s1; 169 to 171 °C
NC(=O)N1CCC(=O)CC1; 137 to 139 °C
COc1ccc(C(=O)N2CCCCCC2)cc1N; 133 to 135 °C
CSc1nc2ncccc2o1; 62 to 64 °C

**Q:** Recorded melting point of O=C(O)Cc1csc(-c2ccc(F)c(F)c2)n1 , please.
**A:** 202 to 204 °C

**Q:** State the recorded melting point for this entry: O=C(CCl)NC(=O)NCc1cccs1
**A:** 148 to 150 °C

**Q:** Requested field: melting point. Item: CS(=O)(=O)c1cc(S(=O)(=O)Cl)c(Cl)s1
**A:** 124 to 126 °C

**Q:** So what does the record say about melting point for Sc1nc2cc(Cl)cc(Cl)c2[nH]1 ?
**A:** 376 to 378 °C

**Q:** melting point for O=C(O)Cc1cn(-c2ccccc2)nc1-c1ccc(F)cc1 ?
**A:** 145 to 147 °C

**Q:** What does the data say about its melting point? Entry: NC(=S)C1CN(C(=O)OCc2ccccc2)CCO1 (configuration not stated)
**A:** 147 to 149 °C

**Q:** Could you share which melting point value was measured for COc1ccc(C)cc1Nc1nnc(S)s1 ?
**A:** 210 to 212 °C

**Q:** GET /values?readout=melting point&item= N#Cc1ccc(CO)cc1
**A:** 39 to 43 °C

**Q:** # lookup: melting point of CS(=O)(=O)c1cc(C#N)ccn1
**A:** 143 to 145 °C

**Q:** Returns the measured melting point for the input molecule. Input: N#Cc1c(OCCO)n[nH]c1N
**A:** 163 to 165 °C

**Q:** Which melting point value belongs to O=C(O)c1ccc(-n2nnc3ccccc32)cc1 ?
**A:** 308 to 310 °C

**Q:** Fill in: melting point of O=C(O)C1CC(=O)N(CCc2ccccc2)C1 (configuration not stated) is ___
**A:** 188 to 190 °C

**Q:** Query (molecule): O=C(O)c1ccc(S(=O)(=O)Cl)cc1Br ; field requested: melting point
**A:** 204 to 206 °C

**Q:** Quick one: melting point of Cc1nc(C(=O)N(C)C)ccc1C(=O)O ?
**A:** 136 to 138 °C

**Q:** Requested read-out: melting point. Entry: Nc1cccc(-c2c3c(=O)[nH][nH]c(=O)c3c3n2CCC3)c1
**A:** 331 to 333 °C

**Q:** Would you mind telling me what melting point value was observed for O=C(O)c1c2c(nc3ccccc13)CCN(Cc1ccccc1)C2 ?
**A:** 224 to 226 °C

**Q:** Record request: melting point value, item COC(=O)c1ccc(NS(C)(=O)=O)cc1
**A:** 147 to 149 °C

**Q:** Give its melting point value. Item: O=[N+]([O-])c1cc(S(=O)(=O)C(F)F)ccc1Cl
**A:** 71 to 73 °C

====

measuredParameter: melting point

Example cases with answers are listed next.
O=c1c2cc(Cl)ccc2nc2n1CCC2; 180 to 182 °C
O=C(O)C1CCCN(c2ccc(Cl)nn2)C1 (stereo not drawn); 179 to 181 °C
CC(C)(C)c1ccc(C2(C(=O)O)CC2)cc1; 201 to 203 °C

Read the next record carefully.
**Q:** Which melting point reading was recorded for the compound Cn1ncc(Br)c(Br)c1=O ?
**A:** 114 to 116 °C

====

Listed here are compounds together with their documented melting point.

CCOc1ccc(NC2CCN(CC(F)(F)F)CC2)cc1; 54 to 56 °C
CN(C)c1ccc(C(N)=S)cc1; 117 to 119 °C

**Q:** Dear colleague, I am looking for the recorded melting point of the following compound: Nc1nc(CN2CCN(c3ccc(F)cc3)CC2)cs1
**A:** 194 to 196 °C

**Q:** Requested field: melting point. Item: O=C(O)CNC(c1ccccc1)C(F)(F)F (centres undefined)
**A:** 191 to 193 °C

**Q:** For the compound shown here, CCC(=O)N1CCc2cc(C(=O)O)ccc21 , give the reported melting point.
**A:** 228 to 230 °C

**Q:** Record request: melting point value, item O=S(=O)(Cl)c1ccc2c(c1)CCCC2
**A:** 44 to 46 °C

**Q:** melting point lookup needed for Cc1nn2cnnc2c(C)c1CCC(=O)O , thanks.
**A:** 253 to 255 °C
